Data origin: ChEMBL document CHEMBL5233248

# Tested on: HCT-116
# ASSAY_INFO: Anticancer activity against human HCT-116 cells assessed as cell growth inhibition incubated for 5 days by SRB assay
# Format: functional, cell-based
# STATED_CONDITIONS: HCT-116, 120 h
OUTCOME_MEASURE: IC50 (µM)
Please state the figure in µM; there is no need to write the unit.

Fill blank: measured IC50 of the compound "Oc1ccccc1/C=N/c1ccccc1O" is ____.
0.6

Do the same for Oc1ccc(/C=C/c2cc(O)cc(O)c2)cc1 [RESVERATROL] please
31

====

Please provide measured IC50 for the entries that follow.
# Test system: MCF7
# ASSAY_INFO: Anticancer activity against human MCF7 cells assessed as cell growth inhibition by CyQuant assay
# Type: functional, cell-based
Please state the figure in µM; there is no need to write the unit.

Fill blank: measured IC50 of the molecule "COc1cc(/C=C/c2ccc(OC(C)=O)cc2)cc(OC)c1" is ____.
10.8

Do the same for "Oc1ccc(/C=C/c2cc(O)cc(O)c2)cc1" please
68.3

====

# TESTED_TARGET: CYP1A (Homo sapiens, UniProt P04798+P05177)
# ASSAY_INFO: Inhibtion of CYP1A (unknown origin)
# Assay type: ADME, protein assay
OUTCOME_MEASURE: IC50 (nM)
Please state the figure in nM; there is no need to write the unit.

Fill blank: measured IC50 of the compound "COc1ccc(/C=C/c2cc(OC)cc(OC)c2)cc1" is ____.
3

Do the same for "Oc1ccc(/C=C/c2cc(O)cc(O)c2)cc1" please
230

Do the same for "Oc1ccc(/C=C/c2cc(O)cc(OCc3ccccc3)c2)cc1" please
140
